test: chemical genetic growth profiling, strain panel (AID 1159580);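 further: tested at 20 µM; growth read once vehicle control cultures reached saturation at 30 °C; lower values mean less growth of the strain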; details: S. cerevisiae deletion strains, growth OD, locus YPL055C, strain LGE1, active compounds read low
In all, about 5,500 compounds went through this assay and about 2,000 (36%) were called active. Not shown: some 18% with an inconclusive outcome. The list shows a part of the results.
Binarize normalized growth at 1; below is yes, at or above is no.

compound=CC(C)Cn1c(=O)n(C)c(=O)c2[nH]cnc21 qualitative_label=no
compound=O=C1c2ccccc2C(=O)c2ccccc21 qualitative_label=yes
compound=Cc1cc(O)c2c(c1)C(=O)c1cc(O)cc(O)c1C2=O qualitative_label=yes
compound=O=C(OCCNc1ccc([N+](=O)[O-])cn1)c1ccc([N+](=O)[O-])o1 qualitative_label=yes
compound="Cc1cc(S(=O)(=O)NC(Cc2ccc([N+](=O)[O-])cc2)C(=O)O)c(Cl)cc1Cl (stereo unspecified)" qualitative_label=no

###

assay: chemical genetic growth profiling, strain panel (AID 1159580);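 further: tested at 20 µM; growth read once vehicle control cultures reached saturation at 30 °C; lower values mean less growth of the strain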; conditions: S. cerevisiae deletion strains, growth OD, locus YML124C, strain tub3
About 2,000 (36%) of roughly 5,500 compounds were called active. Another 18% or so got no clear call; they are omitted. Cut-off read from the data, not from the text of the source: active = normalized growth mostly below about 0.91 (no sharp cut-off); inconclusive = no clear call, values can overlap the other calls; inactive = mostly above about 0.92. The list shows a part of the results.
Outcomes: active, inactive

molecule="ClC1C(Cl)C(Cl)C(Cl)C(Cl)C1Cl (configuration not stated)" qualitative_label=active
molecule=O=C1c2cccc(O)c2C(=O)c2c(O)cccc21 qualitative_label=active
molecule=CN1CCC[C@H]1c1cccnc1 qualitative_label=inactive
molecule=CNC(=O)N(C)c1nnc(C(C)(C)C)s1 qualitative_label=inactive
molecule=O=C1C=CC(=O)c2c(O)cccc21 qualitative_label=inactive
molecule="C=C(C)C1Cc2c(ccc3c(=O)c4c(oc23)COc2cc(OC)c(OC)cc2-4)O1 (configuration not stated)" qualitative_label=inactive
molecule=NS(=O)(=O)c1cc2c(cc1Cl)NCNS2(=O)=O qualitative_label=inactive

###

assay: chemical genetic growth profiling, strain panel (AID 1159580);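 further: tested at 20 µM; growth read once vehicle control cultures reached saturation at 30 °C; lower values mean less growth of the strain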; conditions: S. cerevisiae deletion strains, growth OD, locus YFR019W, strain FAB1
About 2,000 (36%) of roughly 5,500 compounds were called active. Inconclusive results (about 18%) are left out. No stated cut-off is given here; in the data, active means normalized growth mostly below about 0.91 (no sharp cut-off); inconclusive means no clear call, values can overlap the other calls; inactive means mostly above about 0.92. The list shows a part of the results.
Outcome codes: True = active, False = inactive

compound=O=C(Nc1cc(Cl)cc(Cl)c1)c1cc(Br)ccc1O qualitative_label=False
compound="CC1SC(c2cccnc2)N(c2ccc(Cl)cc2)C1=O (stereo not drawn)" qualitative_label=True
compound=O=[N+]([O-])c1cc(C(F)(F)F)ccc1Sc1n[nH]c(-c2cc(Cl)cc(Cl)c2)n1 qualitative_label=True
compound=CC(C)Sc1c(Cl)cccc1NC(=O)Nc1cccc(C(F)(F)F)c1 qualitative_label=False
compound=O=[N+]([O-])c1ccc(NCc2ccc(Cl)c(Cl)c2)nc1 qualitative_label=False
compound=COC(=O)c1sccc1S(=O)(=O)Nc1cc(C(F)(F)F)cc(C(F)(F)F)c1 qualitative_label=False
compound=O=C1C(NCc2ccccc2)=C(NCc2ccccc2)C(=O)c2ccccc21 qualitative_label=False
compound=N/C(=N/OCc1c(F)cccc1Cl)c1ccc(Cl)cc1 qualitative_label=False
compound=COC(=O)c1cccc(NS(=O)(=O)c2ccc(Cl)c(Cl)c2)c1 qualitative_label=False
compound="CCOC(=O)C(NC(=O)c1cccc(Cl)c1)(Nc1nc2ccccc2s1)C(F)(F)F (stereo not drawn)" qualitative_label=False
compound=S=C(NCc1cccs1)Nc1cc(Cl)cc(Cl)c1 qualitative_label=False
compound=COc1ccc(OC)c2nc3c(nc12)C(=O)c1ccccc1-3 qualitative_label=False
compound=COC(=O)c1cc([N+](=O)[O-])ccc1S(=O)(=O)Cc1ccc(Cl)cc1 qualitative_label=False
compound=CC(C)OC(=O)Nc1cc(Cl)cc(Cl)c1 qualitative_label=False
compound=O=C1c2ccccc2C(=O)c2sccc21 qualitative_label=True
compound=COc1ccc(Oc2ccc([N+](=O)[O-])cc2C(=O)O/N=C(/N)c2ccc(C(F)(F)F)cc2)cc1 qualitative_label=False
compound=O=S(=O)(Nc1cc(C(F)(F)F)cc(C(F)(F)F)c1)c1ccc(Cl)s1 qualitative_label=True
compound=NNC(=O)c1oc2nc(-c3ccccc3)cc(-c3ccccc3)c2c1N qualitative_label=False
compound=O=C(Nc1ccc(F)cc1)c1cc(Br)ccc1O qualitative_label=False
compound=Cc1ccc2nc3c(nc2c1)-c1ccccc1C3=O qualitative_label=True
compound=Cc1cc(Sc2c([N+](=O)[O-])cc(C(F)(F)F)cc2[N+](=O)[O-])c(Cl)cc1Cl qualitative_label=False
compound="N#CC(C(=O)Nc1cccc(C(F)(F)F)c1)C(=S)Nc1ccccc1Cl (stereo not drawn)" qualitative_label=False
compound=O=S(=O)(Nc1c(F)cccc1F)c1ccc(Cl)c(Cl)c1 qualitative_label=False

Data provenance: PubChem BioAssay AID1159580
